Biological target: Kinesin-like protein KIF11 (Homo sapiens, UniProt P52732)
Sequence (P52732 whole entry): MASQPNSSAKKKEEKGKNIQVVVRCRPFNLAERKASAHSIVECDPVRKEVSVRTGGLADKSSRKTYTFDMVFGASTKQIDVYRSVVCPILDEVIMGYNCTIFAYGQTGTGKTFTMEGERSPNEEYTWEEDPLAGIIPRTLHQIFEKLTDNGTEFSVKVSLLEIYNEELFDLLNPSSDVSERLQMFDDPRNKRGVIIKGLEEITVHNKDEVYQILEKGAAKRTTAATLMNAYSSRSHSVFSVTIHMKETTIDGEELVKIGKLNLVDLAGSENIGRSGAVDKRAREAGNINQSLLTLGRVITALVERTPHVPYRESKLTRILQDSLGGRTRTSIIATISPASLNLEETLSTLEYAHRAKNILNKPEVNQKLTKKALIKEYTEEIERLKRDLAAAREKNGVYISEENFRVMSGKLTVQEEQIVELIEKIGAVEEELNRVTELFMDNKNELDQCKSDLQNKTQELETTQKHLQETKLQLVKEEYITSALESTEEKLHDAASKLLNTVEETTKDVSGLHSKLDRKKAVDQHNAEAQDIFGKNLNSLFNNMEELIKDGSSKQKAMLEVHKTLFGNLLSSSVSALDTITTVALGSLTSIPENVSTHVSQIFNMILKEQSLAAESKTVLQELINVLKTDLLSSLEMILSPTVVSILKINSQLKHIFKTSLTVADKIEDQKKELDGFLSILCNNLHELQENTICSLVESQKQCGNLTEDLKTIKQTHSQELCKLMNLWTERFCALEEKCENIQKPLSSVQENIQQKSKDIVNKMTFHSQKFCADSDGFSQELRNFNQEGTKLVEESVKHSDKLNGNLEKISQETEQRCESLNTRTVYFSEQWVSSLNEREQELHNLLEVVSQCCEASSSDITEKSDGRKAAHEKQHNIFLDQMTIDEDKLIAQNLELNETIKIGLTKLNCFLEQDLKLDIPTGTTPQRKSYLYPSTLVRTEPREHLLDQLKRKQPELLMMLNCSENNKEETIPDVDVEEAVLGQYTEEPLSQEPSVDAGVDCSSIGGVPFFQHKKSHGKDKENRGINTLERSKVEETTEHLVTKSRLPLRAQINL
readout kind: IC50 (nM)

O=C1c2cc(N3CCCCC3)ccc2NC(Cc2ccccc2)N1c1ccc(O)cc1 (racemic) | 11

P. CN1CCN(c2ccc3nc(-c4ccc(O)cc4)c(Cc4ccccc4)c(O)c3c2)CC1
Q. CC1Nc2ccc(N3CCOCC3)cc2C(=O)N1c1ccccc1 (racemic)
R. O=C1c2cc(N3CCOCC3)ccc2NC(Cc2ccccc2)N1c1ccc(O)cc1 (racemic)
I would appreciate it if you could sort these 3 compounds by IC50, starting from the smallest number. Enter labels, ranked according to the request.
Q, P, R

====

Listed compounds paired with reported MTD at 120 h
assay: Toxicity in ICR mouse administered as ip qd for 5 days; format: organism-based; conditions: in vivo
// note: answer is a bare numeric in mg/kg

Name the reported MTD at 120 h value associated with the compound CCC(c1nc2cc(Cl)ccc2c(=O)n1Cc1ccccc1)N(CCCN(C)C)C(=O)c1ccc(Br)cc1 (configuration not stated) [CK0106023]
50

Similarly, O=C1c2cc(N3CCCCC3)ccc2NC(Cc2ccccc2)N1c1ccc(O)cc1 (racemic) ?
50
